pIC50: −log10 of the molar value.
Collected from the literature: pIC50 of various molecules toward Platelet-activating factor receptor (Homo sapiens, UniProt P25105).
just bin them by pIC50: low bracket: < 7; middle bracket: ≥ 7 and < 8; high bracket: ≥ 8

>>> category_label("CCc1cc(-c2ccc(O)cc2)ccc1S(=O)(=O)N[C@H]1CCC[C@@H](n2cnnc2)C1")
"middle bracket"
>>> category_label("O=S(=O)(N[C@H]1CCC[C@@H](n2cnnc2)C1)c1cc(-c2ccc3ccc(OCC(F)(F)F)nc3c2)cc(C(F)(F)F)c1")
"high bracket"
>>> category_label("COc1cc(C(=O)N(C(C)C)C2CCCCC2)ccc1Cn1cccc2nc(CO)nc1-2")
"low bracket"
>>> category_label("O=S(=O)(N[C@H]1CCC[C@@H](n2cnnc2)C1)c1cc(-c2cccnc2)cc(C(F)(F)F)c1")
"middle bracket"
>>> category_label("O=S(=O)(N[C@H]1CCC[C@@H](n2cnnc2)C1)c1cc(-c2cccn3ccnc23)cc(C(F)(F)F)c1")
"high bracket"
>>> category_label("O=S(=O)(N[C@H]1CCC[C@@H](n2cnnc2)C1)c1ccc(-c2ccc(OCC(F)(F)F)cc2)c(F)c1")
"high bracket"
>>> category_label("CCCCOc1ccc(S(=O)(=O)N[C@H]2CCC[C@@H](n3cnnc3C)C2)c(F)c1")
"high bracket"
>>> category_label("O=C(c1ccc(Cn2ccc3ncnc-3c2)cc1)N(C1CCCC1)C1CCCC1")
"low bracket"
>>> category_label("O=S(=O)(N[C@H]1CCC[C@@H](n2cnnc2)C1)c1cc(-c2cccc3ccc(OCC(F)(F)F)nc23)cc(C(F)(F)F)c1")
"high bracket"
>>> category_label("Cc1nncn1[C@@H]1CCC[C@H](NS(=O)(=O)c2ccc(-c3noc(C4CCCC4)n3)cc2OC(F)(F)F)C1")
"high bracket"
>>> category_label("CCc1cc(-c2cccc3cccnc23)ccc1S(=O)(=O)N[C@H]1CCC[C@@H](n2cnnc2)C1")
"high bracket"
>>> category_label("Cc1nncn1[C@@H]1CCC[C@H](NS(=O)(=O)c2ccc(-c3ccc(OCC(F)(F)F)nc3)cc2F)C1")
"high bracket"
